Data origin: paper PMC3411353

Molecular target: KOR (Mus musculus)
Square brackets hold non-standard residues; d marks the D form. Peptide text beside a SMILES is read from it.

>  <compound>
O=C1N[C@@H](Cc2ccccc2)C(=O)N2CCC[C@@H]2C(=O)N[C@@H](Cc2ccccc2)C(=O)N[C@H]1Cc1c[nH]c2ccccc12 [L-Trp isomer, cyclo[Phe-D-Pro-Phe-Trp]] (cyclo(FWF[dP]))

>  <Ki [nM]>
21.2

$$$$
